test: melting temperature; fluorescence melt of hairpins on a sequencing array, two-state fit, raised by 9.35 °C to match UV melts; details: sodium 0.088 M
Below, each entry is listed with its recorded Tm.
measurement_label: Tm (°C)

> print(dat)
                            item.sequence  measured
 1  CGCACGGAAACGTACGCG ((((((....)))..)))      46.1
 2  GTTTTTTCGAAAGAAAAC (((..(((....))))))      32.1
 3      GATCTTCGGAAAGATC ((((((....))))))      38.9
 4  GATACCCCGAAAGGGATC (((..(((....))))))      33.3
 5  GGCAATCGAAAGATCGCC (((.(((....))).)))        51
 6  GTCTATGGAAACATAGGC (.(((((....))))).)        44
 7  GCTACATCGAAAGATAGC (((..(((....))))))      33.8
 8      GATCAGAGTACTGATC ((((((....))))))        49
 9      GGTGATGAAAATCACC ((((((....))))))      62.5
10  GATCGGGGAAACCCGATC (((((((....)))))))        69
11        GATCTGGGACAGATC ((((((...))))))      58.1
12    GAAGCGCGAAAGCGTTC (((.(((....))))))      41.2
13      GCACCAGAAATGGTGC ((((((....))))))      67.8
14  GATGTGCGAAAGCATATC (((.(((....))).)))      54.2
15  GAGCAGGGAAACCTGTTC ((.((((....)))).))        46
16      GATCCGATAGCGGATC ((((((....))))))      54.3
17  GATAAGCGAAAGCTCATC (((.(((....))).)))      33.8
18  GCCCCCGAAAGGGGAGGC ((((((....)))..)))      59.9
19  GCCGACACGAAAGTGGGC (((..(((....))))))      53.1
20      GATCAAATCCTTGATC ((((((....))))))      42.1
21  GCCTTGCGAAAGCTGGGC (((..((....))..)))      62.6
22  GACCGTGGAAACACGGCC (.(((((....))))).)      50.9
23  GTCTTTGGAAACAAGGAC (((.(((....))).)))      41.5
24  GCTGTGCGAAAGCCTAGC (((..((....))..)))      44.3
25      GATCCCACAAGGGATC ((((((....))))))      64.7
26  GCGCTGCGAAAGCCGAGC ((.(.((....)).).))      50.8
27    CGAGCGGAAACGCGTCG ((((((....))).)))      53.6
28      GTAATGGAAACATTAC ((((((....))))))      46.7
29  GCAGTCGAAAGACGATGC ((((((....)))..)))      46.5
30  GGGCTGGGAAACCGGCCC ((((.((....)).))))      67.2
31      GATCACTTTCGTGATC ((((((....))))))      56.4
32  GTTGTTCGAAAGAAAAAC (((.(((....))).)))      34.9
33  GCAGTCGAAAGACAGTGC ((((((....)))..)))      45.1
34  GAGTGCGAAAGCACACTC ((((((....)))..)))      58.6
35  GTGGAAGGAAACTTTCGC (.(.(((....))).).)        30
36  GATAGGACGAAAGTCATC (((..(((....))))))      25.2
37      GATCGACCTTTCGATC ((((((....))))))      50.6
38      GATCAATGCTTTGATC ((((((....))))))      47.5
39  GTACACGGAAACATGTAC (((((.(....).)))))      34.2
40  GCTGTGGGAAACCACGGC ((.((((....)))).))      58.8
41  GCAGAGCGAAAGCTCCGC ((.((((....)))).))      61.1
42      GATCTTTCAAAAGATC ((((((....))))))      42.2
43      GATCAGAGGTCTGATC ((((((....))))))      49.5
44  GGGCTCGAAAGAGAACCC ((((((....)))..)))      45.2
45  GATACAGCGAAAGCTATC (((..(((....))))))      26.2
46  GCTGGCGAAAGCCAGAGC ((((((....)))..)))      63.3
47              GCGTTGAGACGC ((((....))))      56.6
48  GATTGTGGAAACATAATC ((((.((....)).))))      36.1
49  GAAATCGGAAACGATTTC (((((((....)))))))      59.5
50  GCATGCGAAAGCACCTGC ((((((....)))..)))        33
